Cited source: the supplement of paper PMC10567573

B1: PTPRD (parent)
chain: ITWFKDFLPVDTSNNNGRIKQLRS

# Variants of: B1
# assay comment: protein stability index of a GFP-peptide fusion (GPS, HEK-293T) (PSI 1-6); higher = more stable;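 further: lentivirally expressed fusions sorted by FACS into six bins by GFP to DsRed ratio, PSI derived from sequencing read proportions per bin multiplied by bin number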
# cond: c terminus: a fixed tail appended
Mark n for protein stability index values under 2, and y for everything at or above.

1) ITWFKDFLPVLTSNNNGRIKQLRS; n
2) ITWFKDFLPVDTWNNNGRIKQLRS; n
3) ITWFKDFLPVDNSNNNGRIKQLRS; n
4) ITWFKDFLPVDTSNANGRIKQLRS; n
5) NTWFKDFLPVDTSNNNGRIKQLRS; y

Q: Dear colleague, could you confirm whether ITWFKDFLPVKTSNNNGRIKQLRS has protein stability index at or above 2?
Result: n

Q: Dear colleague, could you confirm whether ITMFKDFLPVDTSNNNGRIKQLRS has protein stability index at or above 2?
Result: y

Q: Dear colleague, could you confirm whether ITWFKDFLPTDTSNNNGRIKQLRS has protein stability index at or above 2?
Result: n

Q: Dear colleague, could you confirm whether ITWFKDFLPVDTENNNGRIKQLRS has protein stability index at or above 2?
Result: n

Q: Dear colleague, could you confirm whether QTWFKDFLPVDTSNNNGRIKQLRS has protein stability index at or above 2?
Result: y

Q: Dear colleague, could you confirm whether ITWFKDFLPVDFSNNNGRIKQLRS has protein stability index at or above 2?
Result: n

Q: Dear colleague, could you confirm whether ITWFWDFLPVDTSNNNGRIKQLRS has protein stability index at or above 2?
Result: n

Q: Dear colleague, could you confirm whether ITWFKDKLPVDTSNNNGRIKQLRS has protein stability index at or above 2?
Result: n

Q: Dear colleague, could you confirm whether ITWFKDFWPVDTSNNNGRIKQLRS has protein stability index at or above 2?
Result: n

Q: Dear colleague, could you confirm whether ITWFKDPLPVDTSNNNGRIKQLRS has protein stability index at or above 2?
Result: y
